Values from ChEMBL document CHEMBL4152217

system: HCT-116; experiment: Cytotoxicity against human HCT116 cells assessed as reduction in cell viability after 72 hrs by MTT assay; assay type: functional, cell-based; conditions: HCT-116, 72 h
pIC50: −log10 of the molar value.
Measured pIC50 accompanies every entry in the list below.
metric: pIC50

{"given-smiles": "O=C1c2ccccc2C(=O)c2c(-c3ccc(F)cc3)coc21", "metric": "pIC50", "value-prefix": "=", "endpoint-value": 5.22}
{"given-smiles": "COc1ccc(-c2coc3c2C(=O)c2ccccc2C3=O)cc1OC", "metric": "pIC50", "value-prefix": "=", "endpoint-value": 5.28}
{"given-smiles": "COc1ccc(-c2cn(-c3ccc(F)cc3)c3c2C(=O)c2ccccc2C3=O)cc1", "metric": "pIC50", "value-prefix": "<", "endpoint-value": 4.88}
{"given-smiles": "Cc1ccc(-c2cn(-c3ccc(Br)cc3)c3c2C(=O)c2ccccc2C3=O)cc1", "metric": "pIC50", "value-prefix": "<", "endpoint-value": 4.92}
{"given-smiles": "COc1ccc(-n2cc(-c3ccc(Cl)cc3)c3c2C(=O)c2ccccc2C3=O)cc1", "metric": "pIC50", "value-prefix": "=", "endpoint-value": 5.05}
